Values were extracted from patent EP4778929A1.

Recorded Tmax by entry
Assay: Pharmacokinetic study in mice, plasma concentrations by LC-MS/MS
Settings: mouse, in vivo, po, 10 mg/kg
recorded_endpoint: Tmax (min)

CC[C@@]1(O)C(=O)OCc2c1cc1n(c2=O)Cc2c-1nc1cc(F)c(C)c3c1c2[C@@H](NC(=O)CO)CC3	19.8
CC[C@@]1(O)C(=O)OCc2c1cc1n(c2=O)Cc2c-1c(=O)c1cc(F)ccc1n2CCN(C)C1CC1	55.2

----------
Assay: in vivo
Settings: male, CD-1, mouse
Experimental: Test Example 3. Pharmacokinetic Study for Determining Compound Concentrations in Mice by LC-MS/MS Principle: LC-MS/MS is used to quantify the plasma concentrations of the test article at successive time points, generating an in-vivo pharmacokinetic profile. Procedure: The test compound was dissolved in DMSO to prepare a 10 mg/mL stock solution. […] Plasma drug concentrations were determined by LC-MS/MS. […]
recorded_endpoint: bioavailability (%)

CC[C@@]1(O)C(=O)OCc2c1cc1n(c2=O)Cc2c-1c(=O)c1cc(F)ccc1n2[C@@H]1CCN(C)C1 [Example 250]	35.9
CC[C@@]1(O)C(=O)OCc2c1cc1n(c2=O)Cc2c-1c(=O)c1cc(F)ccc1n2[C@@H]1CCN(CCO)C1 [Example 252]	43.1
CC[C@@]1(O)C(=O)OCc2c1cc1n(c2=O)Cc2c-1c(=O)c1cc(F)ccc1n2[C@@H]1CCN(C2CCCC2)C1 [Example 257]	40.2
CC[C@@]1(O)C(=O)OCc2c1cc1n(c2=O)Cc2c-1c(=O)c1cc(F)ccc1n2[C@@H]1CCN(CC2CC2)C1 [Example 259]	46.6
